These data points were gathered from patent US20240132622A1.

- target system: T1, recombinant human PAD4 (human, UniProt Q9UM07 1-663)
- T1 construct: also called rhPAD4; hPAD4
- T1 sequence (Q9UM07 whole entry): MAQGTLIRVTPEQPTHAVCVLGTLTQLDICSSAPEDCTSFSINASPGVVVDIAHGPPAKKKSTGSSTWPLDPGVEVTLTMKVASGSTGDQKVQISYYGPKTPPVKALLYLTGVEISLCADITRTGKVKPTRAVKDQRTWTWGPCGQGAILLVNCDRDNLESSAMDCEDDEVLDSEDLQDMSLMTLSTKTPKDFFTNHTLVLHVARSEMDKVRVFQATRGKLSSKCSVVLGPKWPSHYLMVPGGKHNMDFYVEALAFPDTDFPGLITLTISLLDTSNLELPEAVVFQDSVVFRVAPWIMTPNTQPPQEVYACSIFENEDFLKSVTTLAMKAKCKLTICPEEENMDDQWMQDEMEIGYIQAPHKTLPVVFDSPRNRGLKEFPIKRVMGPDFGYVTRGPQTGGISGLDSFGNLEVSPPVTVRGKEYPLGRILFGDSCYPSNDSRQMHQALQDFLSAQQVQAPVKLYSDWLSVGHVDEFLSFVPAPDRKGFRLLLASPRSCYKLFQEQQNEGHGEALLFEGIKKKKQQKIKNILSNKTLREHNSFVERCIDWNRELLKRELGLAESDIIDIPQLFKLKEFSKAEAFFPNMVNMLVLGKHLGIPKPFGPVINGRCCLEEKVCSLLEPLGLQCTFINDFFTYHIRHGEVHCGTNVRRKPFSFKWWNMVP
- test protocol: SPR 37 C, captured antibody, PAD4 analyte, 1 mM CaCl2
Recorded measurements of koff, one per entry

binder: hz20-8 (antibody, V domains shown, light constant region not tied to this antibody) VH: QVQLVQSGAEVKKPGASVKVSCKASGYTFTNYGISWVRQAPGQGLEWMGEIYPRSGNTYHNEKFKDRVTMTTDTSTSTAYMELRSLRSDDTAVYYCARSMITTRYWYFDVWGKGTTVTVSS VL: DIVMTQSPDSLAVSLGERATINCRASESVDTYGNSFMHWYQQKPGQPPKLLIYLASNLESGVPDRFSGSGSGTDFTLTIDSLQAEDVAVYYCQQNNEDPLTFGQGTKLEIK
koff (s⁻¹): 0.00025
//
binder: hz20-11 (antibody, V domains shown, light constant region not tied to this antibody) VH: QVQLVQSGAEVAKPGASVKVSCKASGYTFTNYGISWVRQRPGQGLEWMGEIYPRSGNTYHNEKFKDRVTMTTDTSTSTAYMELRSLRSEDTAVYYCARSMITTRYWYFDVWGKGTTVTVSS VL: DIVMTQSPDSLAVSLGERATINCRASESVDTYGNSFMHWYQQKPGQPPKLLIYLASNLESGVPDRFSGSGSGTDFTLTISSLQAEDVAVYYCQQNNEDPLTFGQGTKLEIK
koff (s⁻¹): 0.00025
//
binder: hz13-12 (antibody, IgG1, V domains shown, also called clone 13-based hz13-12 antibody) VH: EVQLVQSGAEVKKPGATVKISCTSSDFNIKDHFIHWVQQAPGKGLEWMGRIDPEDDETKYAPKFQDRVTITADTSTDTAYMELSSLRSEDTAVYYCAGYGNYEGAMDYWGQGTTVTVSS VL: DVVMTQSPLSLPVTLGQPASISCRASENVNNYGIGFMNWFQQRPGQSPRLLIYAASRRGSGVPDRFSGSGSGTDFTLKISRVEEEDVGVYYCQQSKEVPYTFGGGTKVEIK
koff (s⁻¹): 0.0002
